protocol_summary: inhibitors of Chlamydomonas gravitaxis, primary screen, whole organism, Chlamydomonas reinhardtii, WT vs cilia-less mutant, absorbance, 96-well (AID 463189);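 further: 0% = wild type cc124 cells in DMSO and 100% = ciliumless bld1 mutant cells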
condition_description: OD600 absorbance, 2 days, at 10 µM
Active and inactive are the calls of the source.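 How the source made its calls: active means inhibition at or above 50% relative to wild type and mutant plate controls; inactive means inhibition below 50%.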
Give one outcome, nothing more. List: 1 = active, -1 = inactive

>>> category("CCOC(=O)c1ccc(N=Cc2nc(-c3ccccc3)oc2OC(C)=O)cc1")
-1

(Q) I'd appreciate the recorded outcome for `O=C(c1cccs1)N1CCC(N2CCN(c3ccccc3)CC2)CC1` from this test.
(A) -1

(Q) Record request — test call for `OCCCc1nc2ccccc2n1CCc1ccccc1`
(A) -1

(Q) Which result was noted for this compound in the test: `CN1CCc2c(sc3c2c(=O)n(-c2ccccc2)c2nnc(SCc4ccccc4)n32)C1`
(A) -1

(Q) Returns: the outcome recorded for `COC(=O)c1ccc(C(=O)OC)c(NC(=O)c2cc3ccccc3o2)c1` in this assay.
(A) -1

(Q) Which outcome did this test record for the compound `O=C1CCC(=O)N1CNc1ccccn1` ?
(A) -1

(Q) Field: outcome | Entry: `c1ccc2c(CC3=NCCN3)cccc2c1`
(A) -1

(Q) So what was the verdict on `COc1ccc2[nH]c3c(N4CCN(Cc5ccc6c(c5)OCO6)CC4)ncnc3c2c1` in this test?
(A) 1

(Q) I'd appreciate the recorded outcome for `CO[C@H]1C[C@@H]2CC[C@@H](C)[C@@](O)(O2)C(=O)C(=O)N2CCCC[C@H]2C(=O)O[C@H]([C@H](C)C[C@@H]2CC[C@@H](O)[C@H](OC)C2)CC(=O)[C@H](C)C=C(C)[C@@H](O)[C@@H](OC)C(=O)[C@H](C)C[C@H](C)C=CC=CC=C1C` from this test.
(A) -1

(Q) Status in this test for O=C(C1=C(O)C(=O)N(CCN2CCOCC2)C1c1cccnc1)c1cc2ccccc2o1 (stereo unspecified) ?
(A) -1

---

protocol_summary: inhibitors of Chlamydomonas gravitaxis, primary screen, whole organism, Chlamydomonas reinhardtii, WT vs cilia-less mutant, absorbance, 96-well (AID 463189);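 further: 0% = wild type cc124 cells in DMSO and 100% = ciliumless bld1 mutant cells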
condition_description: OD600 absorbance, 2 days, at 10 µM, stronger effect = higher value
inhibition values for the compounds below.
Only the number, expressed in %, is required.

Example compounds with recorded inhibition:
>>> test_result("O=C(NCc1ccccc1)c1ccc(=O)[nH]n1")
-6.14
>>> test_result("COc1ccc(Nc2nc(Nc3ccc(OC)cc3)nc(-n3[nH]c(=O)c(C)c3C)n2)cc1")
2.29
>>> test_result("C[N+](C)(C)CCOP(=O)([O-])OC[C@H](O)CO")
27.2
>>> test_result("Nc1cccc(C(=O)O)c1")
-1.48
>>> test_result("COc1ccc(-c2cn3ccsc3n2)cc1")
-19.1

Now for a further compound.
Kindly note the recorded inhibition for `Cc1nnc(SCC(=O)N2CCC(C(N)=O)CC2)s1` , which is 29.5

---

inhibition overview
protocol_summary: inhibitors of E-selectin induction by TNFa, primary screen, imaging, HUVEC, immunofluorescence, MLSMR starter and 10KST1 sets (AID 487);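 further: signal is fraction of cell area covered by stained E-selectin grains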
condition_description: HUVEC TNFalpha-induced E-selectin immunofluorescence imaging, at 2 µM; stronger effect = higher value
Give just the numeric value; % need not be written.

Examples with answers:
>>> test_result("C=CCOn1c(=O)c(-c2cc3ccccc3o2)[n+]([O-])c2ccccc21")
-41.6
>>> test_result("Cc1ccc2[nH]c(CCN(C)C)c(CC#N)c2c1")
-74.2
>>> test_result("Cc1c(O)c(CN2CCCCC2)cc2c3c(c(=O)oc12)CCC3")
-1.4
>>> test_result("Cc1ccc2nc(C(F)(F)F)c(C#N)c(N)c2c1")
-14.1

Looking up O=C(O)C1CC=CCC1C(=O)N1CCN(c2nc(-c3ccccc3)c3ccccc3n2)CC1 (centres undefined) , I see its inhibition listed as -48.5

inhibition measured on `CCc1cc2c(=O)c(-c3nc4ccccc4[nH]3)coc2cc1OC(=O)N1CCOCC1` = -44.8

# inhibition of `Cc1cc(C)nc(NC2=NCC(=O)N2c2cccc(Cl)c2)n1` = -200

// inhibition lookup, compound = CCCOc1ccc(/C(O)=C2/C(=O)C(=O)N(CCN(C)C)C2c2ccncc2)cc1 (centres undefined) , result: -139

The reported value for `COC(=O)/C(=C1/Oc2cc(C)oc(=O)c2S1)C(F)(F)F` in terms of inhibition is -59.5

---

The entries below come with measured cell count values attached.
protocol_summary: inhibitors of TNFa-induced NFkB p65 translocation, primary screen, imaging, HUVEC, MLSMR starter and 10KST1 sets (AID 438);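 further: compound added about 3h40 before a 20 min TNFalpha stimulation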
condition_description: HUVEC TNFa-induced p65 nuclear translocation; measured here: nuclei count (cytotoxicity indicator), at 2.08 µM
Just the number, please, no unit attached.

Answered examples (8):
>>> test_result("CC(=O)Oc1cccc2c1C(=O)c1c(OC(C)=O)cc(C(=O)O)cc1C2=O")
646
>>> test_result("CCn1nc(NC(=O)c2cccnc2)c2cc3ccccc3nc21")
522
>>> test_result("CC(=O)c1c(N)nc2n(c1=O)CCCCC2")
354
>>> test_result("COc1ccccc1-n1cnc2cc(NS(=O)(=O)c3ccccc3)ccc21")
720
>>> test_result("OC(CCN1CCCC1)(c1ccccc1)C1CCCCC1 (stereo unspecified)")
573
>>> test_result("COc1cccc2c(=O)c(SC(F)(F)C(F)C(F)(F)F)c(C)[nH]c12 (stereo unspecified)")
311
>>> test_result("CCOC(=O)c1[nH]c2ccccc2c1NC(=O)CCN1CCN(C(=O)OCC)CC1")
626
>>> test_result("c1ccc(Cc2nn[nH]n2)cc1")
659

Record `CCCCc1nc(NCCN2CCOCC2)c(C#N)c2c1COC(C)(C)C2` . Reported cell count: 472

Memo: `COc1c(O)ccc2cnn(-c3ccccc3C)c(=O)c12` , reported cell count: 557

The reported value for CCOC(=O)c1[nH]c2cc(OC)c(OC)cc2c1NC(=O)C(C)N1CCN(Cc2ccccc2)CC1 (stereo unspecified) in terms of cell count is 541

Record `CCOC(=O)c1n[nH]c2ccccc12` , field cell count: 354

// field: cell count; key: `O=C(CCN1CCCCC1)Nc1cccc(Cl)c1` ; value = 336

// `Nc1c(Br)cc2oc(-c3ccccc3)nc2c1Br` : cell count value = 539

Just so you know, measured cell count for `COc1ccc2oc(=O)c(-c3nc(C)cs3)cc2c1` came out at 523

The recorded cell count for entry CCOP(=O)(c1ccccc1)c1nc(-c2ccccc2C)oc1N1CCCCC1 (stereo unspecified) equals 603

---

protocol_summary: inhibitors of E-selectin induction by TNFa, primary screen, imaging, HUVEC, immunofluorescence, MLSMR starter and 10KST1 sets (AID 487);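 further: signal is fraction of cell area covered by stained E-selectin grains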
condition_description: HUVEC TNFalpha-induced E-selectin immunofluorescence imaging, at 2 µM; stronger effect = higher value
Active and inactive are the calls of the source.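 Rule for the calls: active = visually confirmed hit in the image check and inhibition above 20%; inconclusive = visually confirmed hit but inhibition not above 20%; inactive = no visual hit in the image check.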
Recorded inhibition for the following molecules

Here is how some molecules turned out for inhibition.
>>> test_result("Cn1c(=O)[nH]c(=O)c2c1nc(N(CCO)Cc1ccccc1)n2Cc1ccccc1Cl")
"-37.5% (inactive)"
>>> test_result("COc1ccc(C2=Nn3c(nnc3-c3ccccn3)SC2)cc1")
"-43.3% (inactive)"

The measured inhibition associated with `CCCCC1C(=O)N(c2ccccc2)N(c2ccccc2)C1=O` reads -26.6% (inactive)

The recorded inhibition for entry CCOC(=O)C1=C(CSc2nc3c(cc2C#N)CN(C)CC3)OC(N)=C(C#N)C1c1ccccc1 (stereo not drawn) equals 28.8% (inactive)

Just so you know, measured inhibition for COC(=O)C1=C(N)Oc2cc(C)[nH]c(=O)c2C1c1ccncc1 (stereo not drawn) came out at -70.4% (inactive)

Entry `O=C(O)c1cc(=O)c2c(OCC(O)COc3cccc4oc(C(=O)O)cc(=O)c34)cccc2o1` — recorded inhibition = -78.3% (inactive)

Value of measured inhibition for the entry `CN1CCC(=C2c3ccccc3CC(=O)c3sccc32)CC1` : -56.9% (inactive)

---

protocol_summary: DUSP6 inhibitors restoring Erk phosphorylation by chemical complementation, primary imaging in DUSP6-transfected HeLa (AID 609)
condition_description: HeLa MKP-3 transfected, phospho-Erk imaging KS statistic; measured here: nuclear pErk red intensity z-score; at 10 µM; stronger effect = higher value; cells stimulated with TPA for 15 min
Entries annotated with measured z-score
Answer with a bare number; do not write a unit.

These solved cases illustrate the format of a correct answer.
>>> test_result("Cn1cc(Br)cc2nc(C(F)(F)F)nc1-2")
-0.53
>>> test_result("C[C@H]1C[C@@H]2[C@H]([C@@H](O)C[C@@]3(C)[C@H]2CC[C@]3(O)C(=O)CO)[C@@]2(C)C=CC(=O)C=C12")
0.348
>>> test_result("CCCOc1cc(CN2CCCCC2)cc(C(C)=O)c1")
0.549
>>> test_result("O=C(O)c1ccc(OCCn2ccnc2)cc1")
1.25
>>> test_result("Cc1cc(-c2ccccc2)nnc1NCCN1CCOCC1")
0.22
>>> test_result("COC(=O)c1sc(NC(=O)C(C)C)c(C(=O)OC)c1C")
1.06
>>> test_result("COc1ccc(C=NCCC2(O)CC(C)N(C)CC2C)cc1 (configuration not stated)")
-1.22
>>> test_result("CCc1cc(=O)oc2c(CN3CCN(C)CC3)c(O)c(Cl)cc12")
-1.78

Form field z-score, entry `C/C(=N\O)C(=O)NCCCNCCCN(C)C` : -0.264

Notebook: Cn1c(=O)n(Cc2ccccc2)c(=O)c2c1nc(NCC1CCCO1)n2Cc1ccccc1 (configuration not stated) , z-score read as -1.47

// sample `Cc1nnc(C)n1/N=C/c1cc(Br)cc(Br)c1O` , its z-score was -0.137

The origin of these recorded values is PubChem BioAssay.
